These entries and their values trace back to patent US20160319032A1.

- subject of test: human αVβ6 integrin on cells (human, UniProt P06756 31-1048; P18564 22-788)
- Sequence (P06756 31-1048, chain 1 of 2): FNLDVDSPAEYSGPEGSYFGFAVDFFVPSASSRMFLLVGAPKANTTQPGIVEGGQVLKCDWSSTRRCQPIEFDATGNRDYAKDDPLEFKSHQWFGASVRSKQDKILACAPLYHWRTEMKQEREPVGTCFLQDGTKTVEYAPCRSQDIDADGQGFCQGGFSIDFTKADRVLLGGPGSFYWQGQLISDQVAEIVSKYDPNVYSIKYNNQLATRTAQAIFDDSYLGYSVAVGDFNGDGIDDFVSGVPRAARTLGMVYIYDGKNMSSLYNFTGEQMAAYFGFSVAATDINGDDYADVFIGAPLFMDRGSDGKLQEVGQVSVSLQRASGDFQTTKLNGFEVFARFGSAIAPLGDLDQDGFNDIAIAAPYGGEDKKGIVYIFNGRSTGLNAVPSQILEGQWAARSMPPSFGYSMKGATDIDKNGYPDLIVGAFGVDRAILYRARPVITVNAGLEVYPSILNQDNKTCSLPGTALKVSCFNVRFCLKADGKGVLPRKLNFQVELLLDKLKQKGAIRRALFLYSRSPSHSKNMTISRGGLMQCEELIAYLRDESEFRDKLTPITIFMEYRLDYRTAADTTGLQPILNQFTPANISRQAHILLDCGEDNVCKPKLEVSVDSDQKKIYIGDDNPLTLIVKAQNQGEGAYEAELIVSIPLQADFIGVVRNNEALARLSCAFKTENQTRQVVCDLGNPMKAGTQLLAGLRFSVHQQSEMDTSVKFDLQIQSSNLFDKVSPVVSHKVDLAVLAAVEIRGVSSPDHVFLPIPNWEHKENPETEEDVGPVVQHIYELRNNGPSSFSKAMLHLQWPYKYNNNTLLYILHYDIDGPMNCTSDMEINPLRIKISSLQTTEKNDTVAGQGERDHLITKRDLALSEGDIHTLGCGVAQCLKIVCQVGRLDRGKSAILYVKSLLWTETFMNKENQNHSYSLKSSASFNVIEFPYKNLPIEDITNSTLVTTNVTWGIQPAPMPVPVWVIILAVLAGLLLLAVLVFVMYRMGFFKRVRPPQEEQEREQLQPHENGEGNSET
- Sequence (P18564 22-788, chain 2 of 2): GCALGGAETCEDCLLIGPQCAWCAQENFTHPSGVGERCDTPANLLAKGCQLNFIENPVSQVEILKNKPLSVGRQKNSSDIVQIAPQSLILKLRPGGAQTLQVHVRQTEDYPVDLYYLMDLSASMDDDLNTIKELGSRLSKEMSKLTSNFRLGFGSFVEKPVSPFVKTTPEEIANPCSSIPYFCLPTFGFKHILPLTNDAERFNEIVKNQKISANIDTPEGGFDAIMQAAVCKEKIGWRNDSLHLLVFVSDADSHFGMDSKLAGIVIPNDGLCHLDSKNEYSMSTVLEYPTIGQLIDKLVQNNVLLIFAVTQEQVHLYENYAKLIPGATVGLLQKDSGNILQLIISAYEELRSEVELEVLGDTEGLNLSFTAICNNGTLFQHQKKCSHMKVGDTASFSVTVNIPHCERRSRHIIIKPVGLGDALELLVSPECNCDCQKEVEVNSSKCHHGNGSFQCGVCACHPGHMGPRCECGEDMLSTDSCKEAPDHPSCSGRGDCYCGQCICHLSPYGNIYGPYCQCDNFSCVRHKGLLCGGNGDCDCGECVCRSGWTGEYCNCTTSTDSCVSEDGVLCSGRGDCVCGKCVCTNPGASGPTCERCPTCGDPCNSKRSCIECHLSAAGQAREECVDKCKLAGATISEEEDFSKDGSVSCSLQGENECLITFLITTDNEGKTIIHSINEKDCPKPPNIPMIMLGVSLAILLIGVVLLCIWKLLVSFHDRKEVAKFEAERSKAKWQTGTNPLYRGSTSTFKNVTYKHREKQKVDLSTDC
- test protocol: cell-based or functional assay
measurement name: Estimated IC50, adhesion assay, n = 1 (µg/mL)
The answer is to be given in µg/mL; state only the numeric part.

Would you kindly share the measured Estimated IC50, adhesion assay, n = 1 for sc 298 (antibody, V domains shown, lambda light chain) VH: QVQLVESGGGVVQPGRSLRLSCAASGFTFSSYGMHWVRQAPGKGLEWVAVIWYGGSNKYYADSVKGRFTISRDNSKNTLYLQMNSLRAEDTAVYYCARDLAARRGDYYYYGMDVWGQGTTVTVSS VL: SSELTQDPVVSVALGQTVRITCQGDSLRSYYLSWYQQKPGQAPVLVIYGKNNRPSGIPDRFSGSNSGNTASLTITGAQAEDEADYYCNSRDSSGNHLFGGGTKLTVL ?
0.029
